Reported inhibition at 1 µM by item:
- System: SRS-A (slow reacting substance of anaphylaxis) contraction of ileum
- EXPERIMENTAL PROTOCOL: Anti-SRS-A action using ileus of guinea pigs
- Assay type: cell-based, Hartley strain male guinea pigs
- CONDITION: Cavia porcellus, 5 min, 1/1000 mM; guinea pig ileum; SRS-A 20 units; compound five minutes before; read-out: 1/1000 mM SRS-A Inhibition Ratio %
# unit: % | format: bare number

Input line: Could you share which inhibition at 1 µM value was measured for COc1ccc(-c2cc(=O)c3cc(C(=O)O)ccc3[nH]2)cc1 [Example 63] ?
Output line: 23

Input line: Could you share which inhibition at 1 µM value was measured for O=C(OCCOCCO)c1cccc2c(=O)cc(-c3ccccc3Cl)[nH]c12 [Example 128] ?
Output line: 25

Input line: Could you share which inhibition at 1 µM value was measured for C=CCc1c(-c2ccccc2)[nH]c2ccc(C(=O)OC)cc2c1=O [Example 11] ?
Output line: 37.5

***
Input line: Could you share which inhibition at 1 µM value was measured for C=CCc1c(-c2ccccc2)[nH]c2ccc(C(=O)O)cc2c1=O [Example 12] ?
Output line: 22.3
